Tested on: HCV replicon cells
MEASUREMENT PROTOCOL: HCV replicon FRET / luciferase assay (96-well plates)
Format: cell-based
PARTICULARS: Hepatitis C virus, Table 1b; HCV replicon; read-out: EC50
MEASUREMENT LABEL: EC50

Some compounds with known EC50 results, for comparison:
CNC(=O)c1c(-c2ccc(F)cc2)oc2ccc(-c3cc(OCCn4cncn4)cc(C(=O)NCC(C)C)c3)cc12: 1000 to 10000 nM
CNC(=O)c1c(-c2ccc(F)cc2)oc2ccc(-c3ccc(-c4cccnc4OC)c(C(=O)NCC(C)C)c3)cc12: < 250 nM
CNC(=O)c1c(-c2ccc(F)cc2)oc2ccc(-c3cccc(C(=O)NC(C)(C)c4cccnc4)c3)cc12: < 250 nM
CNC(=O)c1c(-c2ccc(F)cc2)oc2ccc(-c3cc(C(=O)NCC(C)C)ccc3OCc3ccccn3)cc12: < 250 nM
CNC(=O)c1c(-c2ccc(F)cc2)oc2ccc(-c3cc(C(=O)NC4(c5ccccn5)CC4)c(OC)cc3Cl)cc12: < 250 nM

For every item below, please supply its EC50.
1. CNC(=O)c1c(-c2ccc(F)cc2)oc2ccc(-c3cc(OCC4CC4)cc(C(=O)NCC(C)C)c3)cc12
2. CNC(=O)c1c(-c2ccc(F)cc2)oc2ccc(-c3cc(C(=O)NCC(C)C)ccc3OCCC(C)C)cc12
3. CNC(=O)c1c(-c2ccc(F)cc2)oc2ccc(-c3ccc(-c4cc(F)cc(F)c4)c(C(=O)NCC(C)C)c3)cc12

250 to 1000 nM
1000 to 10000 nM
< 250 nM

###

Tested on: HCV replicon cells
MEASUREMENT PROTOCOL: HCV replicon FRET / luciferase assay (96-well plates)
Assay type: cell-based
PARTICULARS: Hepatitis C virus, Table 1a; HCV replicon; read-out: EC50
MEASUREMENT LABEL: EC50

Some compounds with known EC50 results, for comparison:
CNC(=O)c1c(-c2ccc(F)cc2)oc2ccc(-c3cccc(C(=O)N[C@H]4C[C@@H]4c4ccccc4)c3)cc12: < 250 nM
CNC(=O)c1c(-c2ccc(F)cc2)oc2ccc(-c3ccc(C(=O)NC4CC4)cc3)cc12: > 1230 nM
CNC(=O)c1c(-c2ccc(F)cc2)oc2ccc(-c3cccc(C(=O)NCc4ccncc4)c3)cc12: 250 to 1000 nM
CNC(=O)c1c(-c2ccc(F)cc2)oc2ccc(-c3cccc(C(=O)NC(C)(C)C(=O)Nc4nccs4)c3)cc12: < 250 nM
CNC(=O)c1c(-c2ccc(F)cc2)oc2ccc(-c3ccc(C(F)(F)F)c(Cl)c3)cc12: > 1230 nM
CNC(=O)c1c(-c2ccc(F)cc2)oc2ccc(OCCCNC(=O)OC(C)(C)C)cc12: 1000 to 10000 nM

For every item below, please supply its EC50.
1. CNC(=O)c1c(-c2ccc(F)cc2)oc2ccc(-c3cccc(C(=O)NC(CO)C(=O)OC)c3)cc12 (stereo not drawn)
2. CNC(=O)c1c(-c2ccc(F)cc2)oc2ccc(-c3cc(C(=O)O)ccc3Cl)cc12
3. CNC(=O)c1c(-c2ccc(F)cc2)oc2ccc(OCC(=O)NCc3ccco3)cc12
4. CNC(=O)c1c(-c2ccc(F)cc2)oc2cc(NC(=O)COC)c(-c3cccc(C(=O)NC4(c5ccccc5)CC4)c3)cc12

1: 1000 to 10000 nM; 2: > 10000 nM; 3: 1000 to 10000 nM; 4: 250 to 1000 nM

###

Kindly supply the reported EC50 values for the records listed here.
Test system: HCV replicon cells
MEASUREMENT PROTOCOL: HCV replicon FRET / luciferase assay (96-well plates)
Type: cell-based
PARTICULARS: Hepatitis C virus, Table 1b; HCV replicon; read-out: EC50

CNC(=O)c1c(-c2ccc(F)cc2)oc2ccc(-c3cc(C(=O)NCC(C)C)ccc3OCC3CCCN3C(=O)OC(C)(C)C)cc12 (stereo not drawn): 1000 to 10000 nM

For every item below, please supply its EC50.
1. CNC(=O)c1c(-c2ccc(F)cc2)oc2ccc(-c3cc(C(=O)NC4(c5cc(C)on5)CC4)ccc3C)cc12
2. CNC(=O)c1c(-c2ccc(F)cc2)oc2cc(NS(C)(=O)=O)c(-c3cc(C(=O)NC4(c5ccccc5)CC4)ccc3F)cc12
3. CNC(=O)c1c(-c2ccc(F)cc2)oc2ccc(-c3cc(C(=O)NCC(C)C)ccc3OCCN)cc12

1. < 250 nM
2. < 250 nM
3. < 250 nM

###

MEASURED TARGET: HCV NS5B RdRp genotype 1b (Hepatitis C virus genotype 1b, UniProt Q9WMX2)
Construct: The protein was expressed with an 18 amino acid C-terminal truncation to enhance the solubility; made in house; host or cells: E. coli BL21(DE3), pET21a vector
Sequence (Q9WMX2 2420-2992): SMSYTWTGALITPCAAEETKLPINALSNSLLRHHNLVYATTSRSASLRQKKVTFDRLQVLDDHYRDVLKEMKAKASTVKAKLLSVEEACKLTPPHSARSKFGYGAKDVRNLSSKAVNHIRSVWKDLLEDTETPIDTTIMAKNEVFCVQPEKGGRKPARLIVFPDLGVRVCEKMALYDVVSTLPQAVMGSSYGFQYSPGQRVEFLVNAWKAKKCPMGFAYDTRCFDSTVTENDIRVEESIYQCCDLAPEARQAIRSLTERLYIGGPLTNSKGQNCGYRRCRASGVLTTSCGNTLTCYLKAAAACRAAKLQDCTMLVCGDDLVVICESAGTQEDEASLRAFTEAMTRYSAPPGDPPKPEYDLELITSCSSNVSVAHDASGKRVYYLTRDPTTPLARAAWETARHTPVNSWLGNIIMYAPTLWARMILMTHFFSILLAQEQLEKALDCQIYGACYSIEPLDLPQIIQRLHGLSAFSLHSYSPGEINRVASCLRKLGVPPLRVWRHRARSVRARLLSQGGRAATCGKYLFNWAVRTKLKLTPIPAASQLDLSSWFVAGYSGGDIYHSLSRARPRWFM
MEASUREMENT PROTOCOL: Standard HCV NS5B RdRp enzyme assay
Type: biochemical
PARTICULARS: Table 1b; HCV NS5B RdRp genotype 1b; read-out: IC50
Kindly supply the reported IC50 values for the records listed here.

Some compounds with known IC50 results, for comparison:
CNC(=O)c1c(-c2ccc(F)cc2)oc2ccc(-c3cc(C(=O)NCC(C)C)ccc3OCCc3ccccn3)cc12: 250 to 1000 nM
CCC(NC(=O)c1cc(-c2ccc3oc(-c4ccc(F)cc4)c(C(=O)NC)c3c2F)c(C)cc1OC)c1ncccn1 (centres unmarked): < 250 nM
CNC(=O)c1c(-c2ccc(F)cc2)oc2ccc(-c3cccc(C(=O)NC(C)(C)C(=O)Nc4cc(C)[nH]n4)c3)cc12: < 250 nM
CNC(=O)c1c(-c2ccc(F)cc2)oc2ccc(-c3ccc(-c4cncnc4)c(C(=O)NCC(C)C)c3)cc12: < 250 nM
CNC(=O)c1c(-c2ccc(F)cc2)oc2ccc(-c3cc(OCC4CC4)cc(C(=O)NCC(C)C)c3)cc12: > 10000 nM
CNC(=O)c1c(-c2ccc(F)cc2)oc2ccc(-c3cc(C(=O)NC4(c5ccccc5)CC4)ccc3OCCN)cc12: < 250 nM

For every item below, please supply its IC50.
1. CNC(=O)c1c(-c2ccc(F)cc2)oc2cc([N+](=O)[O-])c(-c3ccc(OC)c(C(=O)NC4(c5ccccc5)CC4)c3)cc12
2. CNC(=O)c1c(-c2ccc(F)cc2)oc2ccc(-c3cc(OCc4nnc(C)o4)cc(C(=O)NCC(C)C)c3)cc12

1. < 250 nM
2. < 250 nM

###

MEASURED TARGET: HCV NS5B RdRp genotype 1b (Hepatitis C virus genotype 1b, UniProt Q9WMX2)
Construct: The protein was expressed with an 18 amino acid C-terminal truncation to enhance the solubility; made in house; host or cells: E. coli BL21(DE3), pET21a vector
MEASUREMENT PROTOCOL: Standard HCV NS5B RdRp enzyme assay
Type: biochemical
PARTICULARS: untitled table after Table 1b; HCV NS5B RdRp genotype 1b; read-out: IC50
MEASUREMENT LABEL: log10 IC50 (log10 of the value in nM)
Heads up: the numbers are on a log10 scale; they represent IC50 in nM.

CNC(=O)c1c(-c2ccc(F)cc2)oc2ccc(-c3cc(C(=O)NC4(c5ccccc5)CC4)ccc3OC)cc12 [drawing 604]: 1.00
CNC(=O)c1c(-c2ccc(F)cc2)oc2ccc(-c3cccc(C(=O)NCCOC)c3)cc12 [drawing 615]: 3.23
CNC(=O)c1c(-c2ccc(F)cc2)oc2ccc(-c3ccc(C(=O)N4CCC[C@@H]4COC)cc3)cc12 [drawing 621]: 4.02
CNC(=O)c1c(-c2ccc(F)cc2)oc2ccc(-c3cccc(C(=O)N[C@@H](CO)C(C)C)c3)cc12 [drawing 613]: 2.90
CNC(=O)c1c(-c2ccc(F)cc2)oc2ccc(-c3cc(C(=O)NC4(c5ccccn5)CC4)ccc3C)cc12 [drawing 606]: 0.93

Next, consider the following compound.
Per the records, this compound ( CNC(=O)c1c(-c2ccc(F)cc2)oc2ccc(-c3cccc(C(=O)N4CCCCC4C)c3)cc12 (stereo not shown) [drawing 611] ) has log10 IC50 equal to 2.46

###

Test system: HCV replicon cells
MEASUREMENT PROTOCOL: HCV replicon FRET / luciferase assay (96-well plates)
Assay type: cell-based
PARTICULARS: Hepatitis C virus, Table 1a; HCV replicon; read-out: EC50
MEASUREMENT LABEL: EC50

Some molecules with known EC50 results, for comparison:
CNC(=O)c1c(-c2ccc(F)cc2)oc2ccc(-c3ccc(F)cc3Cl)cc12: > 10000 nM
CNC(=O)c1c(-c2ccc(F)cc2)oc2ccc(-c3cccc(C(=O)N[C@H](C(N)=O)C(C)C)c3)cc12: 1000 to 10000 nM

For every item below, please supply its EC50.
1. CNC(=O)c1c(-c2ccc(F)cc2)oc2ccc(-c3cc(OC)ncc3F)cc12
2. CNC(=O)c1c(-c2ccc(F)cc2)oc2ccc(-c3cccc(C(=O)Nc4cccc(C)c4)c3)cc12
3. C#CCNC(=O)c1cccc(-c2ccc3oc(-c4ccc(F)cc4)c(C(=O)NC)c3c2)c1
4. CNC(=O)c1c(-c2ccc(F)cc2)oc2ccc(-c3ccc(C(=O)NCC(C)C)cc3)cc12
5. CNC(=O)c1c(-c2ccc(F)cc2)oc2ccc(-c3cccc(C(=O)NCC4CCOCC4)c3)cc12
6. CNC(=O)c1c(-c2ccc(F)cc2)oc2ccc(-c3cccc(C(=O)Nc4cccc(C(=O)O)c4O)c3)cc12
7. CNC(=O)c1c(-c2ccc(F)cc2)oc2ccc(-c3cccc(C(=O)N4CCC[C@H]4C(=O)N(C)C)c3)cc12

1: > 620 nM; 2: 250 to 1000 nM; 3: 1000 to 10000 nM; 4: 250 to 1000 nM; 5: 250 to 1000 nM; 6: > 10000 nM; 7: 250 to 1000 nM
